// provenance: ChEMBL document CHEMBL1149498

TARGET UNDER TEST: Glutamate receptor ionotropic, AMPA (Rattus norvegicus, UniProt P19490+P19491+P19492+P19493)
METHOD SUMMARY: Antagonist activity against rat brain AMPA receptor expressed in Xenopus laevis oocyte assessed as inhibition of kainate-induced current by two electrode voltage clamp method at holding potential -60 mV
ASSAY METRIC: IC50 (nM)
Entry rule: numbers only, all in nM.

Give its IC50 value. Item: CCCC(=O)N[C@@H](Cc1ccc(O)cc1)C(=O)NCCCCNCCCCCCCN
60.1

---

TARGET UNDER TEST: Glutamate receptor ionotropic, AMPA (Rattus norvegicus, UniProt P19490+P19491+P19492+P19493)
METHOD SUMMARY: Antagonist activity against rat brain AMPA receptor expressed in Xenopus laevis oocyte assessed as inhibition of kainate-induced current by two electrode voltage clamp method at holding potential -100 mV
ASSAY METRIC: IC50 (nM)
Entry rule: numbers only, all in nM.

Give its IC50 value. Item: CCCC(=O)N[C@@H](Cc1ccc(O)cc1)C(=O)NCCCCNCCCCCCCN
3.3

---

TARGET UNDER TEST: UniProt P19490
METHOD SUMMARY: Antagonist activity against rat GluR1 flop expressed in Xenopus laevis oocyte assessed as inhibition of glutamate-induced current at holding potential -100 mV by two electrode voltage clamp method
Assay type: functional
ASSAY METRIC: pKi
In simple prose, pKi is minus the logarithm base ten of a concentration in moles per litre.

Give its pKi value. Item: CCCC(=O)N[C@@H](Cc1ccc(O)cc1)C(=O)NCCCCCNCCCCCCCCCCCCN
7.11

Give its pKi value. Item: CCCC(=O)N[C@@H](Cc1ccc(O)cc1)C(=O)NCCCCCNCCN
6.85

Give its pKi value. Item: CCCC(=O)N[C@@H](Cc1ccc(O)cc1)C(=O)NCCCCCNCCCCCN
7.89

Give its pKi value. Item: CCCC(=O)N[C@@H](Cc1ccc(O)cc1)C(=O)NCCCCCNCCCCCCCCCCN
7.59

Give its pKi value. Item: CCCC(=O)N[C@@H](Cc1ccc(O)cc1)C(=O)NCCCCCNCCCCCCN
8.00

---

TARGET UNDER TEST: UniProt P19490
METHOD SUMMARY: Antagonist activity against rat GluR1 flop expressed in Xenopus laevis oocyte assessed as inhibition of glutamate-induced current at holding potential -60 mV by two electrode voltage clamp method
Format: functional
ASSAY METRIC: log10 of Ki (log10 of the value in nM)
Please note: log10 values; quantity Ki; unit nM.

Give its log10 of Ki value. Item: CCCC(=O)N[C@@H](Cc1ccc(O)cc1)C(=O)NCCCCCNCCCCCN
2.66

Give its log10 of Ki value. Item: CCCC(=O)N[C@@H](Cc1ccc(O)cc1)C(=O)NCCCCCNCCCCCCCCCCN
3.08

Give its log10 of Ki value. Item: CCCC(=O)N[C@@H](Cc1ccc(O)cc1)C(=O)NCCCCCNCCCCCCCCCN
3.70

Give its log10 of Ki value. Item: CCCC(=O)N[C@@H](Cc1ccc(O)cc1)C(=O)NCCCCCNCCCCCCCCCCCCN
3.49

Give its log10 of Ki value. Item: CCCC(=O)N[C@@H](Cc1ccc(O)cc1)C(=O)NCCCCCNCCCCCCN
2.82

Give its log10 of Ki value. Item: CCCC(=O)N[C@@H](Cc1ccc(O)cc1)C(=O)NCCCCCNCCCCN
2.65

Give its log10 of Ki value. Item: CCCC(=O)N[C@@H](Cc1ccc(O)cc1)C(=O)NCCCCCNCCCCCCCCN
3.36

Give its log10 of Ki value. Item: CCCC(=O)N[C@@H](Cc1ccc(O)cc1)C(=O)NCCCCCNCCCCCCCN
3.04

Give its log10 of Ki value. Item: CCCC(=O)N[C@@H](Cc1ccc(O)cc1)C(=O)NCCCCCNCCCN
2.43

Give its log10 of Ki value. Item: CCCC(=O)N[C@@H](Cc1ccc(O)cc1)C(=O)NCCCCCNCCN
3.18

---

Kindly supply the reported Ki values for the records listed here.
TARGET UNDER TEST: Glutamate receptor 1 (Rattus norvegicus)
Sequence (P19490 whole entry): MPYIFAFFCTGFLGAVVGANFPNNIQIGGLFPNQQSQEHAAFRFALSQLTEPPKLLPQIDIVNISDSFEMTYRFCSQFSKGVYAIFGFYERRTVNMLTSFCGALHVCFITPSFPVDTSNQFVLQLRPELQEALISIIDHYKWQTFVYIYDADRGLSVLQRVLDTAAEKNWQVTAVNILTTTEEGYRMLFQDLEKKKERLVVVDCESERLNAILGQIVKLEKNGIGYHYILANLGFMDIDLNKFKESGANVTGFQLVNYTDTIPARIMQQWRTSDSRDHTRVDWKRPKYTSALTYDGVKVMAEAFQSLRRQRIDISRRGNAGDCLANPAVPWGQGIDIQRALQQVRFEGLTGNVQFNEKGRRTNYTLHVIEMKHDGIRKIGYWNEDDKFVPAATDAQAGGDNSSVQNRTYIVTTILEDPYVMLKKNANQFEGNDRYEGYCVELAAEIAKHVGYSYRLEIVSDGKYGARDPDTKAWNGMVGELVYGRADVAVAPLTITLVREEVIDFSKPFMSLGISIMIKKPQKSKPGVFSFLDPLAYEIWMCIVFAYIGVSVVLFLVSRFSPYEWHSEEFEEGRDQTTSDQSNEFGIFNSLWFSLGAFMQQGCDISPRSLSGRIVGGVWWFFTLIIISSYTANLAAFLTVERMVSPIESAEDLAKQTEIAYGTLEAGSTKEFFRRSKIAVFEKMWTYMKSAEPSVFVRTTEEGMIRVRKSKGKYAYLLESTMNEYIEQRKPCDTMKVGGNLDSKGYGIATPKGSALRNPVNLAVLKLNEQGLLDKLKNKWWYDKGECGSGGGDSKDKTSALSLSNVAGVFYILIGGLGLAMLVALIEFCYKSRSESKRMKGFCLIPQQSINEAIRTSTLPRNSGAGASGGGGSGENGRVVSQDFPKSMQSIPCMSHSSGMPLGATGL
METHOD SUMMARY: Antagonist activity against rat GluR1 flop expressed in Xenopus laevis oocyte assessed as inhibition of glutamate-induced current at holding potential -80 mV by two electrode voltage clamp method
Format: functional
Entry rule: numbers only, all in µM.

Give its Ki value. Item: CCCC(=O)N[C@@H](Cc1ccc(O)cc1)C(=O)NCCCCCNCCCCCCCCCN
0.45

Give its Ki value. Item: CCCC(=O)N[C@@H](Cc1ccc(O)cc1)C(=O)NCCNCCCCCCN
0.208

Give its Ki value. Item: CCCC(=O)N[C@@H](Cc1ccc(O)cc1)C(=O)NCCCCNCCCCCCCN
0.038

Give its Ki value. Item: CCCC(=O)N[C@@H](Cc1ccc(O)cc1)C(=O)NCCCNCCCCCCN
0.126

Give its Ki value. Item: CCCC(=O)N[C@@H](Cc1ccc(O)cc1)C(=O)NCCCCCNCCCCCCCN
0.11

Give its Ki value. Item: CCCC(=O)N[C@@H](Cc1ccc(O)cc1)C(=O)NCCCCCCNCCCCCCN
0.685

Give its Ki value. Item: CCCC(=O)N[C@@H](Cc1ccc(O)cc1)C(=O)NCCCCCCNCCCCCN
0.468

Give its Ki value. Item: CCCC(=O)N[C@@H](Cc1ccc(O)cc1)C(=O)NCCCCCNCCCCCCCCCCCCN
0.48

Give its Ki value. Item: CCCC(=O)N[C@@H](Cc1ccc(O)cc1)C(=O)NCCCCCCCCCNCCCCCCN
0.037

Give its Ki value. Item: CCCC(=O)N[C@@H](Cc1ccc(O)cc1)C(=O)NCCCCNCCCCCCN
0.053

---

TARGET UNDER TEST: Glutamate receptor ionotropic, AMPA (Rattus norvegicus, UniProt P19490+P19491+P19492+P19493)
METHOD SUMMARY: Antagonist activity against rat brain AMPA receptor expressed in Xenopus laevis oocyte assessed as inhibition of kainate-induced current at holding potential -80 mV by two electrode voltage clamp method
Type: functional
Kindly supply the reported IC50 values for the records listed here.
Entry rule: numbers only, all in nM.

Give its IC50 value. Item: CCCC(=O)N[C@@H](Cc1ccc(O)cc1)C(=O)NCCCCCCNCCCCCCN
270

Give its IC50 value. Item: CCCC(=O)N[C@@H](Cc1ccc(O)cc1)C(=O)NCCCNCCCCCCCCN
248

Give its IC50 value. Item: CCCC(=O)N[C@@H](Cc1ccc(O)cc1)C(=O)NCCCCCCCCNCCCCCCN
25

Give its IC50 value. Item: CCCC(=O)N[C@@H](Cc1ccc(O)cc1)C(=O)NCCCCCCCCCNCCCCCCN
86

Give its IC50 value. Item: CCCC(=O)N[C@@H](Cc1ccc(O)cc1)C(=O)NCCCCCNCCCCCCCN
127

Give its IC50 value. Item: CCCC(=O)N[C@@H](Cc1ccc(O)cc1)C(=O)NCCCCCNCCCCCN
207

Give its IC50 value. Item: CCCC(=O)N[C@@H](Cc1ccc(O)cc1)C(=O)NCCCCCCCNCCCCN
138

Give its IC50 value. Item: CCCC(=O)N[C@@H](Cc1ccc(O)cc1)C(=O)NCCCCCNCCCN
1100

Give its IC50 value. Item: CCCC(=O)N[C@@H](Cc1ccc(O)cc1)C(=O)NCCCCCNCCCCCCCCCN
798

Give its IC50 value. Item: CCCC(=O)N[C@@H](Cc1ccc(O)cc1)C(=O)NCCNCCCCCCN
310

---

TARGET UNDER TEST: UniProt:P19490
METHOD SUMMARY: Antagonist activity against rat GluR1 flop expressed in Xenopus laevis oocyte assessed as inhibition of glutamate-induced current at holding potential -100 mV by two electrode voltage clamp method
Format: functional
ASSAY METRIC: pKi
In simple prose, pKi is minus the logarithm base ten of a concentration in moles per litre.

Give its pKi value. Item: CCCC(=O)N[C@@H](Cc1ccc(O)cc1)C(=O)NCCCCCNCCCCN
7.89

Give its pKi value. Item: CCCC(=O)N[C@@H](Cc1ccc(O)cc1)C(=O)NCCCCCNCCCCCCCN
8.00

Give its pKi value. Item: CCCC(=O)N[C@@H](Cc1ccc(O)cc1)C(=O)NCCCCCNCCCCCCCCN
7.43

Give its pKi value. Item: CCCC(=O)N[C@@H](Cc1ccc(O)cc1)C(=O)NCCCCCNCCCN
7.85

Give its pKi value. Item: CCCC(=O)N[C@@H](Cc1ccc(O)cc1)C(=O)NCCCCCNCCCCCCCCCN
7.19

---

TARGET UNDER TEST: Glutamate receptor ionotropic, AMPA (Rattus norvegicus, UniProt P19490+P19491+P19492+P19493)
METHOD SUMMARY: Antagonist activity against rat brain AMPA receptor expressed in Xenopus laevis oocyte assessed as inhibition of kainate-induced current at holding potential -80 mV by two electrode voltage clamp method
Assay type: functional
ASSAY METRIC: pIC50
In simple prose, pIC50 is minus the logarithm base ten of a concentration in moles per litre.

Give its pIC50 value. Item: CCCC(=O)N[C@@H](Cc1ccc(O)cc1)C(=O)NCCCNCCCCCCN
6.26

Give its pIC50 value. Item: CCCC(=O)N[C@@H](Cc1ccc(O)cc1)C(=O)NCCCCNCCCCCCCN
7.80

Give its pIC50 value. Item: CCCC(=O)N[C@@H](Cc1ccc(O)cc1)C(=O)NCCCCCNCCN
4.91

Give its pIC50 value. Item: CCCC(=O)N[C@@H](Cc1ccc(O)cc1)C(=O)NCCCCCCCNCCCCCCN
7.35

Give its pIC50 value. Item: CCCC(=O)N[C@@H](Cc1ccc(O)cc1)C(=O)NCCCCCNCCCCCCCCN
6.80

Give its pIC50 value. Item: CCCC(=O)N[C@@H](Cc1ccc(O)cc1)C(=O)NCCCCNCCCCCCN
6.49

Give its pIC50 value. Item: CCCC(=O)N[C@@H](Cc1ccc(O)cc1)C(=O)NCCCCCCCCNCCCN
7.41

Give its pIC50 value. Item: CCCC(=O)N[C@@H](Cc1ccc(O)cc1)C(=O)NCCCCCNCCCCN
6.55

Give its pIC50 value. Item: CCCC(=O)N[C@@H](Cc1ccc(O)cc1)C(=O)NCCCCCCCCCNCCN
6.91

Give its pIC50 value. Item: CCCC(=O)N[C@@H](Cc1ccc(O)cc1)C(=O)NCCCCCNCCCCCCN
7.06

Give its pIC50 value. Item: CCCC(=O)N[C@@H](Cc1ccc(O)cc1)C(=O)NCCCCCCNCCCCCN
6.41
